# experimentalSystem: prostaglandin E2 receptor
# measurementDescription: inhibition of [^3 H]-PGE2 receptor binding in rat uterus membrane fraction
# protocolConditions: Table I; 5 nM [^3 H]-PGE2, rat uterus crude membrane fraction, pH 6.0, 1 hour at room temperature; read-out: IC50, inhibitory effects of PGE2 receptor binding in rat
pIC50: −log10 of the molar value.
measuredParameter: pIC50

Task: Sample CC1(C)[C@H]2C[C@H](NS(=O)(=O)c3ccc([N+](=O)[O-])cc3)[C@@H](C/C=C\CCCC(=O)O)[C@@H]1C2 [3 (h)] — what was its pIC50?
Result: 6.68

Task: Sample O=C(O)CCC/C=C\C1CCCC1CNS(=O)(=O)c1ccc(Br)cc1 (stereo not shown) — what was its pIC50?
Result: 5.74

Task: Sample O=C(O)CCC/C=C\C1CC2CCC1C(NS(=O)(=O)c1ccc(Br)cc1)C2 (stereo not shown) [U.S. Pat. No. 5168101 1 (a)] — what was its pIC50?
Result: 6.11

Task: Sample O=C(O)CCC/C=C\[C@@H]1CC[C@H](NS(=O)(=O)c2ccc(Br)cc2)C1 [U.S. Pat. No. 5168101 1 (i)] — what was its pIC50?
Result: 5.62

Task: Sample CCc1ccc(S(=O)(=O)N[C@H]2C[C@H]3C[C@@H]([C@@H]2C/C=C\CCCC(=O)O)C3(C)C)cc1 [3 (b)] — what was its pIC50?
Result: 6.24

1: Cc1ccc(S(=O)(=O)N[C@H]2[C@H]3CC[C@H](C3)[C@@H]2C/C=C\CCCC(=O)O)cc1 (relative stereo) [5 (c)]
2: Cc1ccc(S(=O)(=O)N[C@H]2[C@H]3CC[C@H](C3)[C@@H]2C/C=C\CCCC(=O)O)cc1 [Example 4]
Task: # argmax over pIC50 for candidates 1 and 2 # reply format: chosen label
Result: 2
(2: 5.47, 1: 5.24)

###

# experimentalSystem: prostaglandin E2 receptor
# measurementDescription: inhibition of [^3 H]-PGE2 receptor binding in rat uterus membrane fraction
# protocolConditions: Table I; 5 nM [^3 H]-PGE2, rat uterus crude membrane fraction, pH 6.0, 1 hour at room temperature; read-out: IC50, inhibitory effects of PGE2 receptor binding in rat
pIC50: −log10 of the molar value.
measuredParameter: pIC50

Task: Sample Cc1ccc(S(=O)(=O)NCC2C3C=CC(C3)C2C=CCCCC(=O)O)cc1 (stereo not drawn) — what was its pIC50?
Result: 5.70

a: Cc1ccc(S(=O)(=O)NCC2CCCC2/C=C\CCCC(=O)O)cc1 (stereo not drawn)
b: CCCCCCCCS(=O)(=O)N[C@H]1C[C@H]2C[C@@H]([C@@H]1C/C=C\CCCC(=O)O)C2(C)C
Task: # argmax over pIC50 for candidates a and b # reply format: chosen label
Result: b
(b: 6.44, a: 5.10)

###

# experimentalSystem: prostaglandin E2 receptor
# measurementDescription: inhibition of [^3 H]-PGE2 receptor binding in rat uterus membrane fraction
# protocolConditions: Table II; 5 nM [^3 H]-PGE2, rat uterus crude membrane fraction, pH 6.0, 1 hour at room temperature; read-out: IC50, inhibitory effects of PGE2 receptor binding in rat
measuredParameter: IC50 (nM)

Solved entries (count: 3):
Task: Sample "O=C(O)CCC/C=C\[C@@H]1[C@H]2CC[C@H](C2)[C@H]1CNS(=O)(=O)/C=C/c1ccccc1" — what was its IC50?
Result: 17

Task: Sample "O=C(O)CCC/C=C\[C@H]1CC[C@@H](NS(=O)(=O)/C=C/c2ccccc2)C1" — what was its IC50?
Result: 1800

Task: Sample O=C(O)CCC/C=C\C[C@H]1CCCC[C@@H]1NS(=O)(=O)/C=C/c1ccccc1 (relative stereo) — what was its IC50?
Result: 230

P: CC1(C)[C@H]2C[C@H](NS(=O)(=O)/C=C/c3ccccc3)[C@@H](C/C=C/CCCC(=O)O)[C@@H]1C2
Q: O=C(O)CCC/C=C\[C@@H]1CCC[C@@H](NS(=O)(=O)/C=C/c2ccccc2)C1 (relative stereo)
Task: Of P and Q , whose reported IC50 is numerically smaller? # reply format: chosen label
Result: P

I: CC1(C)[C@H]2C[C@H](NS(=O)(=O)C=C(c3ccccc3)c3ccccc3)[C@@H](C/C=C\CCCC(=O)O)[C@@H]1C2
II: CCCC/C=C/S(=O)(=O)N[C@H]1C[C@H]2C[C@@H]([C@@H]1C/C=C\CCCC(=O)O)C2(C)C
Task: Of I and II , whose reported IC50 is numerically smaller? # reply format: chosen label
Result: I
